- assay_details: qHTS assay for small molecule agonists of the antioxidant response element (ARE) signaling pathway measured by Nrf2-dependant transcriptional activity - cell viability counter screen (AID 720653); note: % is set by controls: 0 for no effect and ±100 for the full control effect
- stated_conditions: ARE-bla HepG2 viability, CellTiter-Glo ATP luminescence, 16 h; stronger effect = lower value
Results filed as inconclusive are left out.
recorded_metric: max response (%)
Reply numerically in %, unit not repeated.

Use these answered entries as a reference point.
>>> print(df.to_string())
                            chemical_string  recorded_metric  unit_symbol  recorded_result
0                              CC(=O)C(C)=O     max response            %            -2.25
1  CC[C@@H]1Cc2cc(O)ccc2C2=C1c1ccc(O)cc1C[C@H]2CC     max response            %            -25.6
2                            NC(=O)c1ccccc1     max response            %               -5
3  CCCc1c(OCCCOc2ccc(OCC(=O)O)cc2)ccc(C(C)=O)c1O     max response            %             7.96
4                    CCCCCCCCCCCCCCSCC(=O)O     max response            %             2.74

Let us examine a further case.
Dear colleague, I am looking for the recorded max response of the following molecule: C/C(=C\c1ccc(C(=O)O)cc1)c1ccc2c(c1)C(C)(C)CCC2(C)C -1.94
